- measurement.protocol: Preliminary single oral dose of tamoxifen in hCYP2D6 mice, blood metabolite concentrations
- Assay type: in vivo
- condition.notes: hCYP2D6 (CYP2D6-humanized mouse line), mouse, blood, single 15-mg/kg oral dose of tamoxifen, preliminary, data not shown
Cmax overview
Express it in µg/mL; write the number only.

CC/C(=C(\c1ccccc1)c1ccc(OCCNC)cc1)c1ccccc1 :: 0.086

Field: next compound
Reported Cmax, compound CC/C(=C(\c1ccc(O)cc1)c1ccc(OCCN(C)C)cc1)c1ccccc1 [4-HT, 4-hydroxytamoxifen] : ____
0.235

These entries and their values trace back to paper PMC5193068.
